tgt: Tyk2 kinase domain (DH1) (Homo sapiens (Human))
Sequence (P29597 897-1176): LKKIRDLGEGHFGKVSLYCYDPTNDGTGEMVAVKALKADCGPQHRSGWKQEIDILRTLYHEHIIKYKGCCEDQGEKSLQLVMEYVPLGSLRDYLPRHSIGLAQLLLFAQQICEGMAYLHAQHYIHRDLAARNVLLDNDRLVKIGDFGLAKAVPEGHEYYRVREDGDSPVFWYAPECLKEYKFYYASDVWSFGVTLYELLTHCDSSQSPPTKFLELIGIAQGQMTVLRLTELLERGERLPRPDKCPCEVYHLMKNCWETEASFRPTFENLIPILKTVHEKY
measurement description: Tyk2 Radioactive Kinase Assay
Format: biochemical
measurement conditions: 10 μM compound; 10 μM ATP; read-out: Tyk2 JH1% Inhibition @ 10 μM

[
  {
    "chemical string": "CNc1cc(Nc2cccn(-c3ccccc3F)c2=O)nc2c(C(=O)N[C@@H]3CC[C@@H]3O)cnn12",
    "inhibition at 10 µM": "< 50%"
  },
  {
    "chemical string": "CNc1cc(Nc2cccn([C@@H]3CCC[C@H](OC)C3)c2=O)nc2c(C(=O)NCC3(CO)CC3)cnn12",
    "inhibition at 10 µM": "< 50%"
  },
  {
    "chemical string": "CNc1cc(Nc2cc(Cl)cn(-c3cnn(C)c3F)c2=O)nc2c(C(=O)NC3CC3)cnn12",
    "inhibition at 10 µM": "< 50%"
  },
  {
    "chemical string": "CNc1cc(Nc2cccn(-c3cncc(F)c3)c2=O)nc2c(C(=O)NC3CC3)cnn12",
    "inhibition at 10 µM": "< 50%"
  },
  {
    "chemical string": "CNc1cc(Nc2cccn([C@H]3CCCN(CCC#N)C3)c2=O)nc2c(C(=O)N[C@@H]3C[C@@H]3F)cnn12",
    "inhibition at 10 µM": "< 50%"
  },
  {
    "chemical string": "CNc1cc(Nc2cccc(-c3cn(C)nc3F)n2)nc2c(C(=O)NC3CC3)cnn12",
    "inhibition at 10 µM": "< 50%"
  },
  {
    "chemical string": "CNc1cc(Nc2cccn(C(C)C)c2=O)nc2c(C(=O)N[C@H]3CCC[C@H](O)C3)cnn12",
    "inhibition at 10 µM": "< 50%"
  },
  {
    "chemical string": "CNc1cc(Nc2cccn([C@H]3CC[C@](C)(OC)CC3)c2=O)nc2c(C(=O)N[C@H]3CC[C@@H]3O)cnn12",
    "inhibition at 10 µM": "< 50%"
  }
]

###

The following compounds are listed with their measured IC50 values.
tgt: JAK2/JAK2 homdimeric complex (Homo sapiens (Human))
Sequence (O60674 whole entry): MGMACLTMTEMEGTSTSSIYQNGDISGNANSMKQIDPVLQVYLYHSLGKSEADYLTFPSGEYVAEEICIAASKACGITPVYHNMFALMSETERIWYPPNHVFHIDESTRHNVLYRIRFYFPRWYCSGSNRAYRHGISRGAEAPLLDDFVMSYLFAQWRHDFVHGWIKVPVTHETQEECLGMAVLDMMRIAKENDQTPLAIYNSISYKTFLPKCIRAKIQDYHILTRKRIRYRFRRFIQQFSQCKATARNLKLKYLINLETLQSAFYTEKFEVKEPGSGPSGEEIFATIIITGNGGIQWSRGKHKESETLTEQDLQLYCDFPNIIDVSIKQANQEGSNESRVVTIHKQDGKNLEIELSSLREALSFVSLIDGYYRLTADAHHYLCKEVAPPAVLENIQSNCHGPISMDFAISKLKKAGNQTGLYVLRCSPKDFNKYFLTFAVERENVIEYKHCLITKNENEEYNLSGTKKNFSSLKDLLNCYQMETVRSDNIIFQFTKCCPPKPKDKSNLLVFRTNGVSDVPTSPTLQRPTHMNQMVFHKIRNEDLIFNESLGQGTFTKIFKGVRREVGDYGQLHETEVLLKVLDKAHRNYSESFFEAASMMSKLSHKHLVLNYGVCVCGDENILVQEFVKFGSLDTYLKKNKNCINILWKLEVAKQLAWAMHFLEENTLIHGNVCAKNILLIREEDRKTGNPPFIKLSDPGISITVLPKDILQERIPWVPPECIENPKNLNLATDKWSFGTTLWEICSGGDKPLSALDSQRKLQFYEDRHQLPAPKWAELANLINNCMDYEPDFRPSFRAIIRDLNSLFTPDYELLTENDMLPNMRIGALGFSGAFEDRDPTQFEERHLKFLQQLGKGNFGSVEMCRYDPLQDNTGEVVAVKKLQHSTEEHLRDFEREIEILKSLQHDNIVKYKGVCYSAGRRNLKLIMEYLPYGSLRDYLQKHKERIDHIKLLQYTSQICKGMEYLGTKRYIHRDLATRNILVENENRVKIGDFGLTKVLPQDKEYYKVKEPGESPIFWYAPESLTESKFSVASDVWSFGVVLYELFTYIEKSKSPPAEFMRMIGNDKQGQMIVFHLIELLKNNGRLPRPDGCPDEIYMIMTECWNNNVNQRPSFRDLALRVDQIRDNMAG
Sequence (P32927 17-897 partner): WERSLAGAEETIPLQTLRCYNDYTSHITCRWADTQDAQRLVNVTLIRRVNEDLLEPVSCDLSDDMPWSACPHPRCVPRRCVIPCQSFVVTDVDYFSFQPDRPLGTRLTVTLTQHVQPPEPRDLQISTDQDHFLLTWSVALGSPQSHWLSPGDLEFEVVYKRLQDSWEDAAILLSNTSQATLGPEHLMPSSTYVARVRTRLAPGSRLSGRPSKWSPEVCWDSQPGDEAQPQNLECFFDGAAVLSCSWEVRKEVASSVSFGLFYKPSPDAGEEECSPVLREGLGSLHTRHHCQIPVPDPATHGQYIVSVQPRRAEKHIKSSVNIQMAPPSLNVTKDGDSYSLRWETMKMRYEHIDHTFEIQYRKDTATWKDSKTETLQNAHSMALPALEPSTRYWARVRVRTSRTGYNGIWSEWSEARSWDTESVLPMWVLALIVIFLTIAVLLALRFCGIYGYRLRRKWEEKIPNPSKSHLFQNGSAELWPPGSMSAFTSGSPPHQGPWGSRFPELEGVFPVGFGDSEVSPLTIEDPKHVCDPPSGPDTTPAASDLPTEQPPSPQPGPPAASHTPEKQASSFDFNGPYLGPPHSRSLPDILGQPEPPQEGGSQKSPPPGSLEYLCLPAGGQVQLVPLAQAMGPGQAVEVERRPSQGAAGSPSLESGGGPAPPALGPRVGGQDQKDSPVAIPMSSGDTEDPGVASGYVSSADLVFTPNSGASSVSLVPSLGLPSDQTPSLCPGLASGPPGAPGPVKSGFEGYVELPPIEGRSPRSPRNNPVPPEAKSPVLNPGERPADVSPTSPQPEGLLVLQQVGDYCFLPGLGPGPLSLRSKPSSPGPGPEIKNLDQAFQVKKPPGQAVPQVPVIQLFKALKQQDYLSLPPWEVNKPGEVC
measurement description: GM-CSF Induced pSTAT5 in Human PBMC
measurement conditions: GM-CSF 5 ng/mL for 20 minutes, pSTAT5 by MSD, read-out: PBMC_GMCSF_pSTAT5 IC50

[
  {
    "compound": "CNc1cc(Nc2cccn([C@H]3[C@@H]4COC[C@@H]43)c2=O)nc2c(C(=O)N[C@H]3CC[C@@H]3OC)cnn12",
    "IC50": "> 50 µM"
  },
  {
    "compound": "CNc1cc(Nc2cccc(N3CCCC3=O)n2)nc2c(C(=O)NC3CCC3)cnn12",
    "IC50": "> 50 µM"
  },
  {
    "compound": "CNc1cc(Nc2cccn([C@H]3CCC[C@H]3O)c2=O)nc2c(C(=O)NC3CC3)cnn12",
    "IC50": "> 50 µM"
  },
  {
    "compound": "CNc1cc(Nc2cccn([C@@H]3CCCOC3)c2=O)nc2c(C(=O)N[C@H]3CC[C@H]3O)cnn12",
    "IC50": "> 12.5 µM"
  },
  {
    "compound": "[2H]C([2H])([2H])Oc1ncccc1Nc1cc(NC)n2ncc(C(=O)N[C@@H]3CCC[C@@H](O)C3)c2n1",
    "IC50": "> 50 µM"
  },
  {
    "compound": "CNc1cc(Nc2cccn([C@H]3CCCOC3)c2=O)nc2c(C(=O)N[C@@H]3CC[C@H]3OC)cnn12",
    "IC50": "> 12.5 µM"
  },
  {
    "compound": "CNc1cc(Nc2cccn(C3CCOCC3)c2=O)nc2c(C(=O)N[C@H]3C[C@H]3F)cnn12",
    "IC50": "> 2.5 µM"
  },
  {
    "compound": "CNc1cc(Nc2cccc(N3CCOC3=O)n2)nc2c(C(=O)N[C@H]3C[C@H]3F)cnn12",
    "IC50": "> 2.5 µM"
  },
  {
    "compound": "CNc1cc(Nc2cccc3ocnc23)nc2c(C(=O)N[C@H]3COC[C@H]3O)cnn12",
    "IC50": "> 50 µM"
  },
  {
    "compound": "CNc1cc(Nc2cccn(C3CCCOC3)c2=O)nc2c(C(=O)NC3CCC3)cnn12 (racemic)",
    "IC50": "> 50 µM"
  },
  {
    "compound": "CNc1cc(Nc2cccn(-c3ccc(F)cc3)c2=O)nc2c(C(=O)NC3CCC3)cnn12",
    "IC50": "> 2.5 µM"
  },
  {
    "compound": "CNc1cc(Nc2cccnc2OCCOC)nc2c(C(=O)N[C@H]3C[C@H]3F)cnn12",
    "IC50": "> 12.5 µM"
  },
  {
    "compound": "CNc1cc(Nc2cccnc2OC)nc2c(C(=O)N[C@H]3CC[C@H]3O)cnn12",
    "IC50": "> 50 µM"
  },
  {
    "compound": "CNc1cc(Nc2cccnc2OC)nc2c(C(=O)N[C@@H]3CCC[C@H]3O)cnn12",
    "IC50": "> 50 µM"
  },
  {
    "compound": "CNc1cc(Nc2cccc3ocnc23)nc2c(C(=O)N[C@@H]3CC[C@H]3O)cnn12 (racemic) [I-756]",
    "IC50": "> 50 µM"
  },
  {
    "compound": "CNc1cc(Nc2cccnc2OC(F)F)nc2c(C(=O)NC3CCC3)cnn12",
    "IC50": "> 50 µM"
  },
  {
    "compound": "CNc1cc(Nc2cccn([C@H]3CCC[C@H](OC)C3)c2=O)nc2c(C(=O)NCC3(CO)CC3)cnn12",
    "IC50": "> 50 µM"
  },
  {
    "compound": "CNc1cc(Nc2cc(C)cn(-c3cnn(C)c3)c2=O)nc2c(C(=O)NC3CCC3)cnn12",
    "IC50": "> 2.5 µM"
  },
  {
    "compound": "CNc1cc(Nc2cccn(C3CCCCC3)c2=O)nc2c(C(=O)N[C@@H]3CC[C@H]3O)cnn12 [I-943]",
    "IC50": "> 50 µM"
  },
  {
    "compound": "CNc1cc(Nc2cccn([C@H]3CC[C@@](C)(OC)CC3)c2=O)nc2c(C(=O)NC3CC3)cnn12",
    "IC50": "> 12.5 µM"
  },
  {
    "compound": "CNc1cc(Nc2cccnc2OC(C)C)nc2c(C(N)=O)cnn12",
    "IC50": "> 12.5 µM"
  },
  {
    "compound": "CNc1cc(Nc2cc(Cl)cn(C3CCCOC3)c2=O)nc2c(C(=O)NC3CC3)cnn12 (stereo not drawn)",
    "IC50": "> 50 µM"
  },
  {
    "compound": "CNc1cc(Nc2cccn([C@H]3CC[C@H](OC)CC3)c2=O)nc2c(C(=O)N[C@H]3CC[C@H]3O)cnn12",
    "IC50": "> 50 µM"
  },
  {
    "compound": "CNc1cc(Nc2cc(F)cnc2OCCOC)nc2c(C(=O)NC3CCC3)cnn12",
    "IC50": "> 2.5 µM"
  },
  {
    "compound": "CNc1cc(Nc2cccn(-c3ccn(C)n3)c2=O)nc2c(C(=O)NC3CC3)cnn12",
    "IC50": "> 12.5 µM"
  },
  {
    "compound": "CNc1cc(Nc2cccn3ccnc23)nc2c(C(=O)N[C@@H]3C[C@@H]3F)cnn12",
    "IC50": "> 12.5 µM"
  },
  {
    "compound": "CNc1cc(Nc2cccn(-c3ccccn3)c2=O)nc2c(C(=O)N[C@H]3CC[C@@H]3O)cnn12",
    "IC50": "> 50 µM"
  },
  {
    "compound": "CNc1cc(Nc2cccn([C@H]3CCCOC3)c2=O)nc2c(C(=O)NC3CCC3)cnn12",
    "IC50": "> 2.5 µM"
  },
  {
    "compound": "CNc1cc(Nc2cccc([C@@H]3CCCOC3)n2)nc2c(C(=O)N[C@H]3CC[C@@H]3O)cnn12",
    "IC50": "> 2.5 µM"
  },
  {
    "compound": "CNc1cc(-c2cn(C(C)C)c3ncccc23)nc2c(C(=O)N[C@H]3CC[C@@H]3O)cnn12 [I-639]",
    "IC50": "> 12.5 µM"
  },
  {
    "compound": "CNc1cc(Nc2cccn(-c3ncco3)c2=O)nc2c(C(=O)N[C@H]3C[C@H]3F)cnn12",
    "IC50": "> 2.5 µM"
  },
  {
    "compound": "CNc1cc(Nc2cccn([C@H]3CC[C@H](OC)CC3)c2=O)nc2c(C(=O)NC3CC3)cnn12",
    "IC50": "> 12.5 µM"
  },
  {
    "compound": "CNc1cc(-c2cn(CCN3CCOCC3)c3ncccc23)nc2c(C(=O)N[C@H]3CC[C@@H]3OC)cnn12",
    "IC50": "> 0.3 µM"
  }
]
